Test: Physical and processing (bulk) properties of crystalline forms
Format: physicochemical
Conditions: TABLE II, crystalline forms of aztreonam

| COMPOUND | Flowability |
| --- | --- |
| C[C@H]1[C@H](NC(=O)/C(=N\OC(C)(C)C(=O)O)c2csc(N)n2)C(=O)N1S(=O)(=O)O [γ-Form] | poor |
| C[C@H]1[C@H](NC(=O)/C(=N\OC(C)(C)C(=O)O)c2csc(N)n2)C(=O)N1S(=O)(=O)O [α-Form] | poor |
| C[C@H]1[C@H](NC(=O)/C(=N\OC(C)(C)C(=O)O)c2csc(N)n2)C(=O)N1S(=O)(=O)O [δ-Form] | good |
| C[C@H]1[C@H](NC(=O)/C(=N\OC(C)(C)C(=O)O)c2csc(N)n2)C(=O)N1S(=O)(=O)O [β-Form] | good |
